Tested on: MiaPaca human pancreatic carcinoma cells
Test: Cell proliferation assay, Alamar Blue, MiaPaca
Format: cell-based
Conditions: MIA PaCa-2, Table 16
# IC50 annotations

The examples below pair each entry with its known result.
[
  {
    "smilesCode": "O=C(O)c1cccc(Nc2nc3cc(-c4nnn[nH]4)ccc3c3sccc23)c1",
    "testSystem": "MiaPaca human pancreatic carcinoma cells",
    "result": "> 10 µM"
  },
  {
    "smilesCode": "O=C(O)c1ccc2c(c1)nc(Nc1ccc(F)c(F)c1)c1ccsc12",
    "testSystem": "MiaPaca human pancreatic carcinoma cells",
    "result": "> 10 µM"
  }
]

Please provide the recorded IC50 for `O=C(O)c1ccc2c(c1)nc(Nc1cccc(F)c1)c1ccsc12` , tested on MiaPaca human pancreatic carcinoma cells. 7.28 µM

* * *

Tested on: PC-3 human prostatic cancer cells
Assay: Cell proliferation assay, Alamar Blue, PC-3
Assay type: cell-based
Conditions: Table 16, read-out: IC50 PC3
propertyMeasured: IC50 (µM)

Here's what some known entries look like.
[
  {
    "compound": "O=C(O)c1ccc2c(c1)nc(Nc1ccccc1)c1ccsc12",
    "quantitativeReadout": 9.09
  },
  {
    "compound": "O=C(O)c1ccc2c(c1)nc(Nc1cc(F)cc(F)c1)c1ccsc12",
    "quantitativeReadout": 6.11
  },
  {
    "compound": "C#Cc1cccc(Nc2nc3cc(C(=O)O)ccc3c3sccc23)c1 [drawing 938]",
    "quantitativeReadout": 17.8
  }
]

(P) NS(=O)(=O)c1cccc(Nc2nc3cc(C(=O)O)ccc3c3sccc23)c1
(Q) O=C(NC1CC1)c1cccc(Nc2nc3cc(-c4nnn[nH]4)ccc3c3sccc23)c1
Please let me know which one, P or Q , has a lower measured IC50 value. I would appreciate it if you answered with the label of your choice. Q
(Q: 5.31 µM, P: 44.9 µM)

(1) O=C(O)c1ccc2c(c1)nc(Nc1cc(Cl)cc(Cl)c1)c1ccsc12 [drawing 984]
(2) Fc1cccc(Nc2nc3cc(-c4nnn[nH]4)ccc3c3sccc23)c1
Of 1 versus 2 , which is the one with smaller reported IC50? Write the label of whichever entry you select. 2

(1) Clc1cccc(Nc2nc3cc(-c4nnn[nH]4)ccc3c3sccc23)c1
(2) CNC(=O)c1cccc(Nc2nc3cc(-c4nnn[nH]4)ccc3c3sccc23)c1
Please indicate which item has the smaller measured IC50: 1 versus 2 Answer format: the label of the selected item. 2

* * *

Assay: Pharmacokinetics in ICR mice after IV and PO dose
Format: in vivo
Conditions: mouse, plasma, IV 5 mg/kg
propertyMeasured: AUC(0-t) (ng·h/mL)
Number in ng·h/mL, nothing else.

What AUC(0-t) value was documented for this compound, `O=C(O)c1ccc2c(c1)nc(Nc1cccc(Cl)c1)c1ccncc12` ? 3340

* * *

Test system: HT29
Experiment: Cell proliferation assay, Alamar Blue, HT29
Assay type: cell-based
Conditions: Homo sapiens, HT-29; Table 16
propertyMeasured: IC50

[
  {
    "smilesCode": "O=C(O)c1ccc2c(c1)nc(Nc1ccc(F)c(Cl)c1)c1ncsc12",
    "testSystem": "HT29",
    "propertyMeasured": "IC50",
    "result": "> 50 µM"
  },
  {
    "smilesCode": "O=C(O)c1ccc2c(c1)nc(Nc1cc(Cl)ccc1F)c1ccsc12",
    "testSystem": "HT29",
    "propertyMeasured": "IC50",
    "result": "> 50 µM"
  }
]

# value lookup — system HT29, readout IC50, item `O=C(O)c1ccc2c(c1)nc(Nc1ccccc1)c1ncsc12` > 50 µM

Request: `O=C(O)c1ccc2c(c1)nc(Nc1cc(F)cc(F)c1)c1ccsc12` 2 µM

What do you have for `O=C(O)c1ccc2c(c1)nc(Nc1cccc(F)c1)c1ncsc12` ? > 50 µM

Also `O=C(O)c1ccc2c(c1)nc(Nc1cccc(Cl)c1)c1ccsc12` ? 5.36 µM

* * *

System: HCT-116 human colorectal carcinoma cells
Assay: Cell proliferation assay, Alamar Blue, HCT-116;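 note: cells exposed to compound for about 4 days, then Alamar Blue added and fluorescence read after about 4 h, medium-only wells as control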
Format: cell-based
Conditions: HCT-116, Table 16, second HCT-116 column
propertyMeasured: IC50

Some entries whose results are on file:
[
  {
    "smilesCode": "CCc1cccc(Nc2nc3cc(-c4nnn[nH]4)ccc3c3sccc23)c1",
    "IC50": "> 10 µM"
  },
  {
    "smilesCode": "O=C(O)c1cc(F)cc(Nc2nc3cc(C(=O)O)ccc3c3sccc23)c1",
    "IC50": "> 10 µM"
  },
  {
    "smilesCode": "O=C(O)c1ccc2c(c1)nc(Nc1cccc(C(F)(F)F)c1)c1ccsc12",
    "IC50": "> 10 µM"
  },
  {
    "smilesCode": "O=C(O)c1ccc2c(c1)nc(Nc1cccc(C(=O)NC3CC3)c1)c1ccsc12",
    "IC50": "> 10 µM"
  },
  {
    "smilesCode": "CNC(=O)Cc1cccc(Nc2nc3cc(C(=O)O)ccc3c3sccc23)c1",
    "IC50": "> 10 µM"
  },
  {
    "smilesCode": "COC(=O)c1ccc2c(c1)nc(Nc1ccccc1)c1ncsc12",
    "IC50": "> 10 µM"
  },
  {
    "smilesCode": "O=C(O)c1ccc2c(c1)nc(Nc1cccc(I)c1)c1ccsc12",
    "IC50": "> 10 µM"
  },
  {
    "smilesCode": "N#Cc1cc(F)cc(Nc2nc3cc(C(=O)O)ccc3c3sccc23)c1",
    "IC50": "> 10 µM"
  }
]

# get_value(readout='IC50', item= `COC(=O)CNC(=O)c1cccc(Nc2nc3cc(-c4nnn[nH]4)ccc3c3sccc23)c1` ) > 10 µM

Moving on to the next compound: `CCCNC(=O)c1cccc(Nc2nc3cc(C(=O)O)ccc3c3sccc23)c1` > 10 µM

* * *

Test system: MiaPaca human pancreatic carcinoma cells
Assay: Cell proliferation assay, Alamar Blue, MiaPaca
Assay type: cell-based
Conditions: MIA PaCa-2, Table 16
propertyMeasured: IC50

Below, each entry is followed by its recorded IC50 result.
[
  {
    "smilesCode": "O=C(NCc1cccnc1)c1cccc(Nc2nc3cc(-c4nnn[nH]4)ccc3c3sccc23)c1",
    "IC50": "> 10 µM"
  },
  {
    "smilesCode": "O=C(c1cccc(Nc2nc3cc(-c4nnn[nH]4)ccc3c3sccc23)c1)N1CCOCC1",
    "IC50": "> 10 µM"
  },
  {
    "smilesCode": "O=C(O)c1ccc2c(c1)nc(Nc1cccc(I)c1)c1ccsc12",
    "IC50": "9.44 µM"
  },
  {
    "smilesCode": "O=C(O)c1ccc2c(c1)nc(Nc1cccc(S(=O)(=O)NC3CC3)c1)c1ccsc12",
    "IC50": "> 10 µM"
  }
]

Now take the following compound into account.
Reported IC50 for `COC(=O)CNC(=O)c1cccc(Nc2nc3cc(-c4nnn[nH]4)ccc3c3sccc23)c1` : what is it? > 10 µM

* * *

System: SK-OV-3
Test: Cell proliferation assay, Alamar Blue, SK-OV-3
Format: cell-based
Details: Homo sapiens; SK-OV-3 cells, anti-proliferative
propertyMeasured: IC50 (µM)
Write it as a number; the unit µM goes unstated.

GET /values?readout=IC50&item= O=C(O)c1ccc2c(c1)nc(Nc1cc(Cl)cc(Cl)c1)c1ccsc12 [drawing 991] 11.7

* * *

Test system: HT29
Assay: Cell proliferation assay, Alamar Blue, HT29
Format: cell-based
Settings: Homo sapiens, HT-29; Table 16
propertyMeasured: IC50 (µM)

(A) NS(=O)(=O)c1cccc(Nc2nc3cc(C(=O)O)ccc3c3sccc23)c1
(B) O=C(O)c1ccc2c(c1)nc(Nc1cc(Cl)cc(Cl)c1)c1ccsc12 [drawing 984]
Hello, I am sorting some records. Could you say if A or B has the smaller IC50 value? Refer to your chosen item by its label in the answer. A
(A: 4.6 µM, B: 13 µM)

* * *

System: BxPC3
Test: Cell proliferation assay, Alamar Blue, BxPC3
Type: cell-based
Settings: Homo sapiens, BXPC-3; Table 19b
Experimental: c. Plate 4,000-5,000 cells per well in 100 μl of medium and seed into a 96-well plate according to the following plate layout. Add cell culture medium only to wells B10 to B12. Wells B1 to B9 have cells but no compound added. d. Add 100 μl of 2× drug dilution to each well in a concentration shown in the plate layout above. […] h. Record fluorescence at an excitation wavelength of 544 nm and emission wavelength of 590 nm using a microplate reader. […]
propertyMeasured: IC50 (µM)

Field: example entries. Status: answers known.
[
  {
    "compound": "CCOc1ncc2c(n1)c(NC1CC1)nc1cc(C(=O)O)ccc12 [drawing 1266]",
    "propertyMeasured": "IC50",
    "quantitativeReadout": 48.9
  },
  {
    "compound": "O=C(O)c1ccc2c(c1)nc(NCCCc1ccccc1)c1ccncc12 [drawing 1221]",
    "propertyMeasured": "IC50",
    "quantitativeReadout": 23.4
  },
  {
    "compound": "O=C(O)c1ccc2c(c1)nc(NC1CC1)c1nc(NC3CC3)ncc12 [drawing 1267]",
    "propertyMeasured": "IC50",
    "quantitativeReadout": 2.59
  }
]

(I) O=C(O)c1ccc2c(c1)nc(NC1CC1)c1ccncc12 [drawing 1290]
(II) CC1CCCCN1CCCNc1ncc2c(n1)c(Nc1ccc(F)c(Cl)c1)nc1cc(C(=O)O)ccc12 (stereo not drawn) [drawing 1280]
(III) O=C(O)c1ccc2c(c1)nc(NCc1ccccc1)c1nc(NC3CC3)ncc12 [drawing 1277]
(IV) CCCNc1ncc2c(n1)c(NC1CC1)nc1cc(C(=O)O)ccc12 [drawing 1296]
Sort low-to-high on IC50, please. Your answer should be the labels, listed in the requested order. II, IV, III, I
